Test system: rabbit aortic rings
Assay: Assay B: In vitro vascular smooth muscle response for AII (antagonist activity, pA2)
Assay type: cell-based
Conditions: Oryctolagus cuniculus, in vitro vascular smooth muscle response; two values per cell separated by / are separate determinations; read-out: Assay B pA2 (converted)
Metric Name: Kb (nM)
Unit nM implied. Number only.

What value of measured Kb is listed for CCCCc1ncn(Cc2ccc(-c3ccccc3C(=O)O)cc2)n1 ? 6610

What value of measured Kb is listed for CCCCc1nn(CC(O)c2ccccc2)c(=O)n1Cc1ccc(-c2ccccc2-c2nn[nH]n2)cc1 (stereo not shown) ? 5.01

What value of measured Kb is listed for CCCCc1nn(CC(=O)OCC)c(=O)n1Cc1ccc(-c2ccccc2-c2nn[nH]n2)cc1 ? 15.8

What value of measured Kb is listed for CCCCc1nn(CC2CC2)c(=O)n1Cc1ccc(-c2ccccc2-c2nn[nH]n2)cc1 ? 10

What value of measured Kb is listed for CCCCc1nn(CCCCC(=O)O)c(=O)n1Cc1ccc(-c2ccccc2-c2nn[nH]n2)cc1 ? 10

What value of measured Kb is listed for CCCCn1nc(CCC)nc1Cc1ccc(-c2ccccc2-c2nnn[nH]2)nc1 ? 34.7

What value of measured Kb is listed for CCCCCCn1nc(CCCC)n(Cc2ccc(-c3ccccc3-c3nn[nH]n3)cc2)c1=O ? 1.26

What value of measured Kb is listed for CCCCc1nc2c(OC(=O)C3CCCCC3)nnc(O)c2n1Cc1ccc(-c2ccccc2-c2nnn[nH]2)cc1 ? 0.891

What value of measured Kb is listed for CCCCc1nc(CCC(=O)O)nn1Cc1ccc(-c2ccccc2-c2nnn[nH]2)cc1 ? 17

What value of measured Kb is listed for CCCCc1nc(Cc2ccc(-c3ccccc3-c3nnn[nH]3)nc2)n(CC(CC)CC)n1 ? 603

What value of measured Kb is listed for CCCCc1nc(CCCC2CCCCC2)n(Cc2ccc(-c3ccccc3-c3nnn[nH]3)cc2)n1 ? 1000

What value of measured Kb is listed for CCCCc1nc(CCC(C)C)n(Cc2ccc(-c3ccccc3-c3nnn[nH]3)cc2)n1 ? 1.12

What value of measured Kb is listed for CCCn1nc(C(C)(F)F)nc1Cc1ccc(-c2ccccc2-c2nnn[nH]2)nc1 ? 126

----------
System: rabbit aortic rings
Assay: Assay B: In vitro vascular smooth muscle response for AII (antagonist activity, pA2)
Type: cell-based
Settings: Oryctolagus cuniculus, in vitro vascular smooth muscle response; two values per cell separated by / are separate determinations; read-out: Assay B pA2 (converted)
Note to self: values exactly at 20 nM are rule met. So Kb at or above 20 nM is rule met, below is rule not met.

Is Kb for CCCCc1nc(CC2CCCCC2)nn1Cc1ccc(-c2ccccc2-c2nnn[nH]2)cc1 at or above 20 nM? rule not met

Is Kb for CCCCc1nc(Cc2ccc(-c3ccccc3C(=O)O)cc2)n(CCCC)n1 at or above 20 nM? rule met

Is Kb for CCCCc1nc(CC(OCC)OCC)n(Cc2ccc(-c3ccccc3-c3nnn[nH]3)cc2)n1 at or above 20 nM? rule met

Is Kb for CCCCc1nc2c(CCC)nnc(O)c2n1Cc1ccc(-c2ccccc2-c2nnn[nH]2)cc1 at or above 20 nM? rule not met

Is Kb for CCCCc1nc(CC23CC4CC(CC(C4)C2)C3)nn1Cc1ccc(-c2ccccc2-c2nnn[nH]2)cc1 at or above 20 nM? rule not met

Is Kb for CCCCc1nc(CCC)n(Cc2ccc(-c3ccccc3-c3nnn[nH]3)cc2)n1 at or above 20 nM? rule not met

Is Kb for CCCCc1nc(C=O)nn1Cc1ccc(-c2ccccc2-c2nnn[nH]2)cc1 at or above 20 nM? rule met

Is Kb for CCCCc1nc(C)n(Cc2ccc(-c3ccccc3C(=O)O)cc2)n1 at or above 20 nM? rule met

Is Kb for CCCc1nc(CCC)n(Cc2ccc(-c3ccccc3-c3nnn[nH]3)cc2)n1 at or above 20 nM? rule not met

Is Kb for CCCCc1nc(C)nn1Cc1ccc(-c2ccccc2C(=O)O)cc1 at or above 20 nM? rule met

Is Kb for CCCCc1nn(CCCc2ccccc2)c(=O)n1Cc1ccc(-c2ccccc2-c2nn[nH]n2)cc1 at or above 20 nM? rule not met

Is Kb for CCCCn1nc(C=O)nc1Cc1ccc(-c2ccccc2-c2nnn[nH]2)nc1 at or above 20 nM? rule met

Is Kb for CCCCc1nc(CCCC2CCCCC2)nn1Cc1ccc(-c2ccccc2-c2nnn[nH]2)cc1 at or above 20 nM? rule met

Is Kb for CCCCc1nn(CC(OCC(=O)O)c2ccccc2)c(=O)n1Cc1ccc(-c2ccccc2-c2nn[nH]n2)cc1 (stereo not drawn) at or above 20 nM? rule not met

Is Kb for CCCCc1nc(Cl)nn1Cc1ccc(-c2ccccc2-c2nnn[nH]2)cc1 at or above 20 nM? rule not met

Is Kb for CCCCc1nc(CCc2ccccc2)n(Cc2ccc(-c3ccccc3-c3nnn[nH]3)cc2)n1 at or above 20 nM? rule met

Is Kb for CCCCc1nc(CCCC)n(Cc2ccc(-c3ccccc3-c3nnn[nH]3)cn2)n1 at or above 20 nM? rule not met

Is Kb for CCCc1cn(CCC)c(=O)n1Cc1ccc(-c2ccccc2-c2nnn[nH]2)cc1 at or above 20 nM? rule not met

Is Kb for CCCCc1nc2c(O)nnc(O)c2n1Cc1ccc(-c2ccccc2-c2nnn[nH]2)cc1 at or above 20 nM? rule not met

Is Kb for CCCCc1nc(CCC(=O)O)n(Cc2ccc(-c3ccccc3-c3nnn[nH]3)cc2)n1 at or above 20 nM? rule met

Is Kb for CCCCn1nc(C(F)(F)CCC)nc1Cc1ccc(-c2ccccc2-c2nnn[nH]2)cc1 at or above 20 nM? rule not met

Is Kb for CCCn1nc(C(F)(F)CC)nc1Cc1ccc(-c2ccccc2-c2nnn[nH]2)nc1 at or above 20 nM? rule met

Is Kb for CCCCc1nn(CCC2CCCCC2)c(=O)n1Cc1ccc(-c2ccccc2-c2nn[nH]n2)cc1 at or above 20 nM? rule not met

Is Kb for CCCCc1nn(CCCC)c(=O)n1Cc1ccc(-c2ccccc2-c2nnn[nH]2)cc1 at or above 20 nM? rule not met

Is Kb for CCCCc1cn(-c2ccccc2Cl)c(=O)n1Cc1ccc(-c2ccccc2-c2nnn[nH]2)cc1 at or above 20 nM? rule not met

Is Kb for CCCCc1nc2c(O)nnc(O)c2n1Cc1ccc(-c2ccccc2C(=O)O)cc1 at or above 20 nM? rule met

Is Kb for CCCCc1nc2cnnc(O)c2n1Cc1ccc(-c2ccccc2-c2nnn[nH]2)cc1 at or above 20 nM? rule not met

Is Kb for CCCCn1nc(-c2ccccc2Cl)nc1Cc1ccc(-c2ccccc2-c2nnn[nH]2)nc1 at or above 20 nM? rule not met
